# pIC50 annotations
Test System: Avi-KRAS G12V (1-169) GppNHp/RAF1 RBD-3xFLAG (52-151) (Homo sapiens, UniProt P01116, G12V)
Construct: Avi-KRAS G12V (1-169)
Sequence (P01116 1-169 isoform P01116-2 G12V): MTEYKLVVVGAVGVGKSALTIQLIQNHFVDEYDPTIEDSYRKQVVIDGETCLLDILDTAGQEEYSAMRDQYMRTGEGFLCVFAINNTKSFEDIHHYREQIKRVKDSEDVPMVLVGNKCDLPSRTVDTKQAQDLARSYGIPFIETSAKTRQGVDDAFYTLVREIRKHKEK
Assay Protocol: Raf1-KRAS G12V-GppNHP disruption HTRF assay (Biological Example 1)
Type: binding
Recorded Conditions: KRAS G12V, GppNHp-loaded; Table 11
pIC50: −log10 of the molar value.

Give Avi-KRAS G12V (1-169) GppNHp/RAF1 RBD-3xFLAG (52-151) (Homo sapiens, UniProt P01116, G12V) pIC50 for C[C@H]1COCCN1c1nc(OC[C@@]23CCCN2C[C@H](F)C3)nc2c(F)c(-c3ccc(F)c4sc(N)c(C#N)c34)c(C(F)(F)F)cc12
6.00 to 7.00

Give Avi-KRAS G12V (1-169) GppNHp/RAF1 RBD-3xFLAG (52-151) (Homo sapiens, UniProt P01116, G12V) pIC50 for N#Cc1c(N)sc2c(F)ccc(-c3c(C(F)(F)F)cc4c(N5CCNS(=O)(=O)CC5)nc(OC[C@@]56CCCN5C[C@H](F)C6)nc4c3F)c12
6.00 to 7.00

Give Avi-KRAS G12V (1-169) GppNHp/RAF1 RBD-3xFLAG (52-151) (Homo sapiens, UniProt P01116, G12V) pIC50 for CN(c1nc(OC[C@@]23CCCN2C[C@H](F)C3)nc2c(F)c(-c3ccc(F)c4sc(N)c(C#N)c34)c(C(F)(F)F)cc12)[C@]1(CC#N)C[C@H](O)C1 (atropisomer, axis not shown)
5.00 to 6.00

Give Avi-KRAS G12V (1-169) GppNHp/RAF1 RBD-3xFLAG (52-151) (Homo sapiens, UniProt P01116, G12V) pIC50 for CC(=O)N1CC[C@H](N(C)c2nc(OC[C@@H]3CC4(CC4)CN3C)nc3c(F)c(-c4ccc(F)c5sc(N)c(C#N)c45)c(C(F)(F)F)cc23)[C@@H]1C
< 5.00

Give Avi-KRAS G12V (1-169) GppNHp/RAF1 RBD-3xFLAG (52-151) (Homo sapiens, UniProt P01116, G12V) pIC50 for N#Cc1c(N)sc2c(F)ccc(-c3c(C(F)(F)F)cc4c(N5CC6CCC(C5)C6O)nc(OC[C@@]56CCCN5C[C@H](F)C6)nc4c3F)c12 (some centres unmarked)
5.00 to 6.00

Give Avi-KRAS G12V (1-169) GppNHp/RAF1 RBD-3xFLAG (52-151) (Homo sapiens, UniProt P01116, G12V) pIC50 for CN(c1nc(OC[C@@]23CCCN2C[C@H](F)C3)nc2c(F)c(-c3ccc(F)c4sc(N)c(C#N)c34)c(C(F)(F)F)cc12)[C@H]1CCS(=O)(=O)C1 [Compound 94]
6.00 to 7.00

Give Avi-KRAS G12V (1-169) GppNHp/RAF1 RBD-3xFLAG (52-151) (Homo sapiens, UniProt P01116, G12V) pIC50 for N#Cc1c(N)sc2c(F)ccc(-c3c(C(F)(F)F)cc4c(N5CC6CCC(C5)O6)nc(OC[C@@]56CCCN5C[C@H](F)C6)nc4c3F)c12
5.00 to 6.00

Give Avi-KRAS G12V (1-169) GppNHp/RAF1 RBD-3xFLAG (52-151) (Homo sapiens, UniProt P01116, G12V) pIC50 for N#Cc1c(N)sc2c(F)ccc(-c3c(C(F)(F)F)cc4c(N5CCCCC5)nc(OC[C@@]56CCCN5C[C@H](F)C6)nc4c3F)c12
5.00 to 6.00

Give Avi-KRAS G12V (1-169) GppNHp/RAF1 RBD-3xFLAG (52-151) (Homo sapiens, UniProt P01116, G12V) pIC50 for N#Cc1c(N)sc2c(F)ccc(-c3c(C(F)(F)F)cc4c(N5CCC(F)(F)CC5)nc(OC[C@@]56CCCN5C[C@H](F)C6)nc4c3F)c12
5.00 to 6.00

Give Avi-KRAS G12V (1-169) GppNHp/RAF1 RBD-3xFLAG (52-151) (Homo sapiens, UniProt P01116, G12V) pIC50 for CCC(=O)N1CC[C@@H](N(C)c2nc(OC[C@@]34CCCN3C[C@H](F)C4)nc3c(F)c(-c4ccc(F)c5sc(N)c(C#N)c45)c(C(F)(F)F)cc23)C1
6.00 to 7.00

Give Avi-KRAS G12V (1-169) GppNHp/RAF1 RBD-3xFLAG (52-151) (Homo sapiens, UniProt P01116, G12V) pIC50 for CN1C[C@H](F)C[C@H]1COc1nc(N(C)[C@H]2C[C@@H](O)C2)c2cc(C(F)(F)F)c(-c3ccc(F)c4sc(N)nc34)c(F)c2n1 (atropisomer, axis not shown)
< 5.00

====

Test System: Avi-KRAS WT (1-169) GppNHp/RAF1 RBD-3xFLAG (52-151) (Homo sapiens, UniProt P01116)
Construct: Avi-KRAS WT (1-169)
Sequence (P01116 1-169 isoform P01116-2): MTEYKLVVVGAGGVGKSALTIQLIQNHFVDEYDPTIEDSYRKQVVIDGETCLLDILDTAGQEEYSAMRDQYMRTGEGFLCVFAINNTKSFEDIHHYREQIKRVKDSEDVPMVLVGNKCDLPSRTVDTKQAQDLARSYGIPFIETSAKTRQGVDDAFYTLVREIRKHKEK
Assay Protocol: Raf1-KRAS WT-GppNHP disruption HTRF assay (Biological Example 1)
Type: binding
Recorded Conditions: KRAS WT-GppNHp/RAF1 RBD HTRF
pIC50: −log10 of the molar value.
Readout Label: pIC50

Examples with answers:
CN(c1nc(OC[C@@]23CCCN2C[C@H](F)C3)nc2c(F)c(-c3ccc(F)c4sc(N)c(C#N)c34)c(C(F)(F)F)cc12)[C@@H]1C[C@H]2COC(=O)N2C1 = 6.00 to 7.00
CNC(=O)N1CC[C@@H](N(C)c2nc(OC[C@@]34CCCN3C[C@H](F)C4)nc3c(F)c(-c4ccc(F)c5sc(N)c(C#N)c45)c(C(F)(F)F)cc23)[C@H]1C = 6.00 to 7.00
N#Cc1c(N)sc2c(F)ccc(-c3c(C(F)(F)F)cc4c(N5C6CCC5CS(=O)(=O)C6)nc(OC[C@@]56CCCN5C[C@H](F)C6)nc4c3F)c12 = 6.00 to 7.00
CC(=O)NCCN(C)c1nc(OC[C@@]23CCCN2C[C@H](F)C3)nc2c(F)c(-c3ccc(F)c4sc(N)c(C#N)c34)c(C(F)(F)F)cc12 = 6.00 to 7.00
C[C@@H]1[C@H](N(C)c2nc(OC[C@@]34CCCN3C[C@H](F)C4)nc3c(F)c(-c4ccc(F)c5sc(N)c(C#N)c45)c(C(F)(F)F)cc23)CCN1C(=O)C1(F)CC1 = 6.00 to 7.00
C[C@@]1(CO)CCN1c1nc(OC[C@@]23CCCN2C[C@H](F)C3)nc2c(F)c(-c3ccc(F)c4sc(N)c(C#N)c34)c(C(F)(F)F)cc12 = < 5.00

Given the entry CCN(c1nc(OC[C@@]23CCCN2C[C@H](F)C3)nc2c(F)c(-c3ccc(F)c4sc(N)c(C#N)c34)c(C(F)(F)F)cc12)[C@H]1CC(=O)N(C(C)C)C1 , report its measured pIC50.
5.00 to 6.00

Given the entry CC(=O)N1C2CCC1CN(c1nc(OC[C@@]34CCCN3C[C@H](F)C4)nc3c(F)c(-c4ccc(F)c5sc(N)c(C#N)c45)c(C(F)(F)F)cc13)C2 , report its measured pIC50.
6.00 to 7.00

Given the entry CCN(c1nc(OC[C@@]23CCCN2C[C@H](F)C3)nc2c(F)c(-c3ccc(F)c4sc(N)c(C#N)c34)c(C(F)(F)F)cc12)[C@H]1CCN(C(=O)C(F)F)C1 (atropisomer, axis not shown) , report its measured pIC50.
> 7.00

Given the entry N#Cc1c(N)sc2c(F)ccc(-c3c(C(F)(F)F)cc4c(N5CC6COC(C6)C5)nc(OC[C@@]56CCCN5C[C@H](F)C6)nc4c3F)c12 (stereo partly drawn) , report its measured pIC50.
6.00 to 7.00

Given the entry N#Cc1c(N)sc2c(F)ccc(-c3c(C(F)(F)F)cc4c(N5C[C@H]6C[C@H](O)[C@@H]5C6)nc(OC[C@@]56CCCN5C[C@H](F)C6)nc4c3F)c12 , report its measured pIC50.
6.00 to 7.00

Given the entry N#Cc1c(N)sc2c(F)ccc(-c3c(C(F)(F)F)cc4c(N5CCN6C(=O)OCC6C5)nc(OCC56CCCN5CC(F)C6)nc4c3F)c12 (stereo not drawn) [Compound 431] , report its measured pIC50.
5.00 to 6.00

Given the entry CC(=O)N1C[C@@H](N(C)c2nc(OC[C@@]34CCCN3C[C@H](F)C4)nc3c(F)c(-c4ccc(F)c5sc(N)c(C#N)c45)c(C(F)(F)F)cc23)C[C@@H]1C , report its measured pIC50.
6.00 to 7.00

Given the entry CN(C)C(=O)[C@@H]1CN(c2nc(OC[C@@]34CCCN3C[C@H](F)C4)nc3c(F)c(-c4ccc(F)c5sc(N)c(C#N)c45)c(C(F)(F)F)cc23)CCO1 , report its measured pIC50.
5.00 to 6.00

Given the entry CCN(c1nc(OC[C@@]23CCCN2C[C@H](F)C3)nc2c(F)c(-c3ccc(F)c4sc(N)c(C#N)c34)c(C(F)(F)F)cc12)[C@@H]1CCN(C(=O)OC)[C@@H]1C , report its measured pIC50.
6.00 to 7.00

Given the entry CC(=O)N1C[C@@H](N(C)c2nc(OC[C@@]34CCCN3C[C@H](F)C4)nc3c(F)c(-c4ccc(F)c5sc(N)c(C#N)c45)c(C(F)(F)F)cc23)C[C@@H]1CF , report its measured pIC50.
6.00 to 7.00

Given the entry C[C@@H]1[C@H](N(C)c2nc(OC[C@@]34CCCN3C[C@H](F)C4)nc3c(F)c(-c4ccc(F)c5sc(N)c(C#N)c45)c(C(F)(F)F)cc23)CCN1C(=O)CF , report its measured pIC50.
> 7.00

Origin of measurements: patent US20260042764A1
